# protocol_details: in vitro
# experimental_parameters: human, hela cells, % viability
quantity_kind: viability at 28.5 h, 10 µM

Use the examples below as a reference point.
molecule=OCCOc1cccc(-c2nnco2)c1 quantity_kind="viability at 28.5 h, 10 µM" result=98.6%
molecule=O=C(CS(=O)(=O)c1ccccc1)N1CCN2C(=O)N(C3CCCCC3)C(=O)[C@H]2C1 quantity_kind="viability at 28.5 h, 10 µM" result=89.6%
molecule=CCOC(=O)C1(C2CCCCC2)CCN(C(=O)/C=C/c2ccc3c(c2)OCO3)CC1 quantity_kind="viability at 28.5 h, 10 µM" result=92.8%
molecule=Sc1nnc(-c2ccncc2)n1CCc1ccccc1 quantity_kind="viability at 28.5 h, 10 µM" result=108%
molecule=Cc1[nH]c(=O)[nH]c1C(=O)CCCCC(=O)O quantity_kind="viability at 28.5 h, 10 µM" result=94%

Go through the items and report each one's viability at 28.5 h, 10 µM.
1. CCC(C)(C)c1ccc(S(=O)(=O)Nc2ccc(F)cc2F)cc1
2. CSc1cccc(NC(=O)c2sc3nc(C)cc(C)c3c2N)c1
3. CN1CCc2c(sc3nc(SCc4ccc(Cl)c(Cl)c4)n(-c4ccccc4)c(=O)c23)C1
4. CC(=O)Nc1ccc(S(=O)(=O)Oc2ccc(/C=C3\SC(=N)NC3=O)cc2Cl)cc1

1. 95.7%
2. 94.7%
3. 94.2%
4. 100%

Go through the items and report each one's viability at 28.5 h, 10 µM.
1. Nc1ncc(-c2ccoc2)nc1NCc1ccncc1
2. Cc1ccc(NC(=O)c2cccnc2)c(C(=O)O)c1
3. O=C(O)CC[n+]1c(/C=C/Nc2ccccc2)oc2ccccc21 [CBK260898B]

["95.1%", "103%", "93.3%"]
